Target: H^+ -K^+ -ATPase (Sus scrofa)
Construct: which was prepared from the stomach of swine
Sequence (P19156 2-1034 limits assumed): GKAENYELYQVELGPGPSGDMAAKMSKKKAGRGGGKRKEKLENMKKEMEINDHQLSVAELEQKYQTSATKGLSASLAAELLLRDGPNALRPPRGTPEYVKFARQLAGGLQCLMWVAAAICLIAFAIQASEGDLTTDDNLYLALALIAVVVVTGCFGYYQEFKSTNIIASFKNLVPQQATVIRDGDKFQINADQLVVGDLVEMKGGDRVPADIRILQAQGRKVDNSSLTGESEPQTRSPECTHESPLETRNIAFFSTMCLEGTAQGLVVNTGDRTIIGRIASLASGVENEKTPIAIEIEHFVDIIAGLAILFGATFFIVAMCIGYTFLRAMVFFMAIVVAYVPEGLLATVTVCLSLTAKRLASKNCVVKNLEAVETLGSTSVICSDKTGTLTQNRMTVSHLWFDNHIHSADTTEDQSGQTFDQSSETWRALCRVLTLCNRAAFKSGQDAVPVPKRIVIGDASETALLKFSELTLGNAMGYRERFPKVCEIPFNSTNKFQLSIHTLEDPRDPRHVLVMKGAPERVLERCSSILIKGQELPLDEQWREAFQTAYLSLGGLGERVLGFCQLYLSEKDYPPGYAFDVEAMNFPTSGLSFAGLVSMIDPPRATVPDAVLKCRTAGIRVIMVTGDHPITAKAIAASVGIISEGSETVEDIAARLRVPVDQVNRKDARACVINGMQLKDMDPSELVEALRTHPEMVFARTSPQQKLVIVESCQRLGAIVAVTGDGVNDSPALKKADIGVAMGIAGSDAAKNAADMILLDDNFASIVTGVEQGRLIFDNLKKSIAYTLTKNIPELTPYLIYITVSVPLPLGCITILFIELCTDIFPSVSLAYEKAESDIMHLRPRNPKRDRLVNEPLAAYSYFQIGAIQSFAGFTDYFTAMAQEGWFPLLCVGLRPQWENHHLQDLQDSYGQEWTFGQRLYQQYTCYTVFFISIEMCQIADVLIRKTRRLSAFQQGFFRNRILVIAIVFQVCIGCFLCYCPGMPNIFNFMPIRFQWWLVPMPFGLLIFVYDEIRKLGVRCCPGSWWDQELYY
Sequence (P18434 whole entry partner): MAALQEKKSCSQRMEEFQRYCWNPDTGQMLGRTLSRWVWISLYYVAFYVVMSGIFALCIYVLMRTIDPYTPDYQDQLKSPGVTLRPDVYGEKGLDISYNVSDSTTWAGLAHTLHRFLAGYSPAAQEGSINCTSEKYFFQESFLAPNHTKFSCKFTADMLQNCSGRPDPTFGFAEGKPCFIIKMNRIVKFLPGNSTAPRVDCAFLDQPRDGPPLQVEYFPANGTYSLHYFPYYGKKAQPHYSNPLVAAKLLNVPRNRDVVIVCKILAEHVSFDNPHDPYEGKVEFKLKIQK
Assay: Inhibitory Effect Test for the Activity of H^+ -K^+ -ATPase
Details: H+-K+-ATPase from the stomach of swine; preincubation pH 6.1, room temperature 30 min; reaction pH 7.4, 37° C. 30 min; read-out: IC50 (50% inhibition dosage)
READOUT LABEL: IC50 (µM)

Examples with their reported IC50 follow.
{"COMPOUND": "[O-][S+](c1nc2ccc(Cl)cc2[nH]1)C1CCCc2cccnc21 (stereo not shown)", "SYSTEM NAME": "H^+ -K^+ -ATPase (Sus scrofa)", "IC50 [µM]": 1}
{"COMPOUND": "COc1ccc2nc([S+]([O-])C3CCCc4cccnc43)[nH]c2c1 (stereo not shown)", "SYSTEM NAME": "H^+ -K^+ -ATPase (Sus scrofa)", "IC50 [µM]": 1.9}
{"COMPOUND": "COc1ccc2nc([S+]([O-])C3CCCc4ccc(O)nc43)[nH]c2c1 (stereo not shown)", "SYSTEM NAME": "H^+ -K^+ -ATPase (Sus scrofa)", "IC50 [µM]": 2.3}
{"COMPOUND": "COc1ccc2nc([S+]([O-])C3CCCc4cc(C)c(Cl)nc43)[nH]c2c1 (stereo not shown)", "SYSTEM NAME": "H^+ -K^+ -ATPase (Sus scrofa)", "IC50 [µM]": 2.1}

a = Cc1ccc2nc([S+]([O-])C3CCCc4cccnc43)[nH]c2c1 (stereo not shown)
b = C=CCOc1c(C)cnc2c1CCCC2[S+]([O-])c1nc2cc(Cl)c(Cl)cc2[nH]1 (stereo not shown)
c = Cc1cnc2c(c1)CCCC2[S+]([O-])c1nc2ccc(C)cc2[nH]1 (stereo not shown)
Ordering criterion: IC50; begin with the maximum. Please, when replying, give the labels in the order that was requested. a, c, b
(a: 1.9 µM, c: 1.1 µM, b: 0.31 µM)
